# System: HEK-293T
# method: Multiplex assay against HEK293T
# Type: toxicity, cell-based
# settings: human, 24 h, 10 µM, compound concentration 10 uM, replicate 2
Class TRUE: Population Mitochondria Different-Phenotype (%) at least 60%. Class FALSE: Population Mitochondria Different-Phenotype (%) below 60%.

>>> label("O=C(O)CCC/C=C\\CC1C(O)CC(O)C1/C=C/C(O)COc1cccc(Cl)c1 (stereo not drawn)")
"FALSE"
>>> label("CN1C[C@H](C(=O)N[C@]2(C)O[C@@]3(O)[C@@H]4CCCN4C(=O)[C@H](Cc4ccccc4)N3C2=O)C[C@@H]2c3cccc4[nH]cc(c34)C[C@H]21.CS(=O)(=O)O [DIHYDROERGOTAMINE MESYLATE]")
"FALSE"
>>> label("COc1ccc2c(c1OCc1ccccc1)C[C@@H](C(=O)O)N(C(=O)C(c1ccccc1)c1ccccc1)C2")
"FALSE"

Does the compound "S=C(NCCCc1c[nH]cn1)NCCCN(Cc1ccc(Cl)c(Cl)c1)c1ccc(Br)cn1" have recorded Population Mitochondria Different-Phenotype (%) that is 60% or more?
TRUE

Does the compound "COCCn1c(C)c(C)s/c1=N\C(=O)C1C(C)(C)C1(C)C" have recorded Population Mitochondria Different-Phenotype (%) that is 60% or more?
TRUE

Does the compound "CN1CCC(C(=O)c2cccc(NC(=O)c3c(F)cc(F)cc3F)n2)CC1" have recorded Population Mitochondria Different-Phenotype (%) that is 60% or more?
TRUE

Does the compound "CCc1nn2c(C)cc(C)nc2c1Cc1ccc(-c2nnc(C3CCNCC3)o2)cc1" have recorded Population Mitochondria Different-Phenotype (%) that is 60% or more?
TRUE
